Items are presented alongside their recorded CDC % Relative activity.
# study-target: human Claudin18.2 (human)
# test-summary: cell-based or functional assay
Please reply with the bare figure in % and do not write the unit itself.

Below, 3 binders whose answers are already recorded.
Lookup: Retrieve CDC % Relative activity measured for chimeric 262C7C10 (antibody, human IgG1, kappa, V domains shown, chimeric, human IgG1/kappa constant regions) VH: QAYLQQSGAELVRSGASVKMSCKASGYTFTNYNIHWVKQTPGQGLEWIGYIYPGNGGNYYNQKFKGKATLTADTSSITAYMQISSLTSEDSAVYFCARDYYGNSFAYWGQGTLVTVSA VL: DIVMTQSPSSLTVTAGEKVTMNCKSSQSLLNSGNQKNYLTWYQQKPGQPPKLLIYWASTRESGVPDRFTGSGSGTDFTLTISSVQAEDLAIYYCQNDYYYPLTFGAGTKLELKR and print it.
Found: 666

Lookup: Query CDC % Relative activity for chimeric 370E2B12C3 (antibody, human IgG1, kappa, V domains shown, chimeric, human IgG1/kappa constant regions; also called 370E2B12C3-chimeric) VH: QVQLKESGPGLVAPSQSLSITCTVSGFSLTTYGVHWVRQPPGKGLEWLGVIWAGGSTNYNSALMSRVSINKDNSKSQVFIKMNSLQADDTALYYCARAAYYGNGLDYWGQGTTLTVSS VL: DIVMTQSPSSLTVTAGEKVTMSCKSSQTLLNSGNQKNYLTWYQQKPGQPPKLLIYWASTGESGVPDRFTGSGSGTDFTLTISSVQAEDLAVYFCQNAYFYPFTFGGGTKLEIKR
Found: 1200

Lookup: Item chimeric 250F4G4 (antibody, human IgG1, kappa, V domains shown, chimeric, human IgG1/kappa constant regions) VH: QAYLQQSGAELVRSGASVKMSCKASGYTFTSHNMHWVKQTPGQGLEWIGYIYPGNGRTNYNQKFKGKATLTADTSSSTAYMQISSLTSEDSAVYFCTRDYYGNSFAYWGQGTLVTVSA VL: DIVMTQSPSSLTEKVGERVSMSCKSSQSLFNSGNQKNYLTWYQQKPGQPPKLLIYWASTRESGVPDRFTGSGSGTDFTLTISSVQAEDLAVYYCQNDYWYPFTFGAGTKLELKR : provide CDC % Relative activity
Found: 875

Now take the following binder into account.
Lookup: Quote CDC % Relative activity reported for chimeric 222B6G5 (antibody, human IgG1, kappa, V domains shown, chimeric, human IgG1/kappa constant regions) VH: QTYLQQSGAELVRSGASVKMSCKASGYTFTSYNIHWVKQTPGQGLEWIGYISPGNGGTYYNLKFKDKATLTTATSSSTAYMQISSLTSEDSAVYFCATGRGFAYWGQGTLVTVSA VL: DIVMTQSPSSLTVTPGEKVTMSCKSSQSLFNSGNQKNYLIWYQQKPGQPPKLLIYRASTRDSGVPDRFTGSGSGTDFTLTISNVQAEDLAVYYCQNDYSYPLTFGAGTKLELKR please.
Found: 1320
